- Procedure summary: Plasma pharmacokinetics following oral dose administration to male Wistar Han rats
- Format: in vivo
- Assay setup: male, Wistar Han, in vivo; rat, oral gavage, 15 mg/kg (measured dose 15 mg/kg), plasma
Recorded metric: half-life (h)
Report as a plain number; the unit h is understood.

Q) Entry C=C(C)[C@@H]1CCC(C)=C[C@H]1c1c(O)cc(-c2cnn(C)c2)cc1O has what half-life?
A) 3.3

====

- Procedure summary: Plasma pharmacokinetics following oral dose administration to male Wistar Han rats
- Type: in vivo
- Assay setup: male, Wistar Han, rat, in vivo, po, oral gavage, 45 mg/kg (measured dose 101 mg/kg), plasma
Recorded metric: Cmax (ng/mL)
Enter your answer as a number in ng/mL; do not include the unit.

Q) Suppose we examine the compound C=C(C)[C@@H]1CCC(C)=C[C@H]1c1c(O)cc(-c2cnn(C)c2)cc1O ; what Cmax value has been reported?
A) 4010

====

- Procedure summary: Plasma pharmacokinetics following oral dose administration to male Wistar Han rats
- Assay type: in vivo
- Assay setup: male, Wistar Han, rat, in vivo, po, oral gavage, 150 mg/kg (measured dose 204 mg/kg), plasma
Recorded metric: Cmax (ng/mL)
Your answer is read as ng/mL, so omit the unit and give the number.

Q) Fill in: Cmax of C=C(C)[C@@H]1CCC(C)=C[C@H]1c1c(O)cc(-c2cnn(C)c2)cc1O is ___
A) 6730

====

- Procedure summary: Plasma pharmacokinetics following oral dose administration to male Wistar Han rats
- Assay type: in vivo
- Assay setup: male, Wistar Han, rat, in vivo, po, oral gavage, 45 mg/kg (measured dose 101 mg/kg), plasma
Recorded metric: Tmax (h)
The reply should contain only the number, in h.

Q) Look at this molecule and give its reported Tmax. C=C(C)[C@@H]1CCC(C)=C[C@H]1c1c(O)cc(-c2cnn(C)c2)cc1O
A) 1

====

- Procedure summary: Plasma pharmacokinetics following oral dose administration to male Wistar Han rats
- Type: in vivo
- Assay setup: male, Wistar Han, rat, in vivo, po, 15 mg/kg, oral gavage, 15 mg/kg (measured dose 15 mg/kg), plasma
Recorded metric: AUC(0-inf) (ng·h/mL)
Express your answer in ng·h/mL, writing the number without its unit.

Q) Item C=C(C)[C@@H]1CCC(C)=C[C@H]1c1c(O)cc(-c2cnn(C)c2)cc1O has what recorded AUC(0-inf)?
A) 5330

====

- Procedure summary: Plasma pharmacokinetics following oral dose administration to male Wistar Han rats
- Format: in vivo
- Assay setup: male, Wistar Han, rat, in vivo, po, oral gavage, 45 mg/kg (measured dose 101 mg/kg), plasma
Recorded metric: AUC(0-t) (ng·h/mL)
Give the quantity in ng·h/mL, number only.

Q) Given the entry C=C(C)[C@@H]1CCC(C)=C[C@H]1c1c(O)cc(-c2cnn(C)c2)cc1O [Compound 1] , report its measured AUC(0-t).
A) 47900

====

- Procedure summary: Plasma pharmacokinetics following oral dose administration to male Wistar Han rats
- Type: in vivo
- Assay setup: male, Wistar Han, rat, in vivo, po, oral gavage, 150 mg/kg (measured dose 204 mg/kg), plasma
Recorded metric: Tmax (h)
Quick note: give the figure in h, leave out the unit.

Q) Give its Tmax value. Item: C=C(C)[C@@H]1CCC(C)=C[C@H]1c1c(O)cc(-c2cnn(C)c2)cc1O [Compound 1]
A) 8

The measured values listed here are drawn from patent US12534438B2.
